- TESTED ON: T1, Cynomolgus macaques CD200R1 isoform a on CHOK1 cells (CHOK1/cynoCD200R1a) (Cynomolgus macaques)
- T1 chain: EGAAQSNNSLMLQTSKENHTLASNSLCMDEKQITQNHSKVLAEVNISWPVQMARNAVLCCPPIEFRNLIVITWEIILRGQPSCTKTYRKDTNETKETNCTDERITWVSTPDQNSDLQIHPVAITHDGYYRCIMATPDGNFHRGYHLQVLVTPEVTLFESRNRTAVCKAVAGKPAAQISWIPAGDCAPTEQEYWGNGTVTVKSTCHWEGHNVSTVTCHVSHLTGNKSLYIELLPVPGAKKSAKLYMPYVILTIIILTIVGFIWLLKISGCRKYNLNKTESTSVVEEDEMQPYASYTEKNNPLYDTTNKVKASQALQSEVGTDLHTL
- METHOD NOTES: flow cytometry, CHOK1/cynoCD200R1a cells (APC-A Mean); table beside the curves
Listed here: items and their measured MFI (MAX).
No unit in the answer, please; the number alone is enough.

Read the entry PR007974 (antibody, human IgG1, kappa, V domains shown, PTM variant of PR006839 (human IgG1)) VH: QVQLVESGGGVVQPGRSLRLSCAASGFTFSYYGFHWVRQAPGKGLEWLGLIWSDARHKDYADSVKGRFTISRDNSKNTLYLQMNSLRAEDTAVYYCARDRIVGEGFDYWGQGTLVTVSS VL: DIVMTQSPLSLPVTPGEPASISCRSSQSLLHRSGYNYLDWYLQKPGQSPQLLIYLGSYRASGVPDRFSGSGSGTDFTLKISRVEAEDVGVYYCQQGIQTTYTFGQGTKLEIKR and write its reported MFI (MAX).
52200
